Assign log10 of Ki to each entry below.
Target: Cy5-labelled Mcl1 (amino acids 171-321) C286S protein (UniProtKB Q07820) (Homo sapiens (Human), UniProt Q07820, C286S)
Sequence (Q07820 171-321 C286S): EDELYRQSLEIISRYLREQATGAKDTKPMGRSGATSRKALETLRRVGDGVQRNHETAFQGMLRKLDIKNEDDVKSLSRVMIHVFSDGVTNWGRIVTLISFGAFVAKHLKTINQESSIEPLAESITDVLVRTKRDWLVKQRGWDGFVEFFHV
Experiment: Inhibition of Mcl-1 by the fluorescence quenching assay (Example A, Method B)
Format: binding
Scale type: logarithmic (base 10). Underlying Ki unit: nM.

Here are 5 compounds together with their reported answers.
compound: O=C(O)[C@]1(Nc2cccc(Cl)c2)CC[C@@]2(CC1)c1ccccc1CC2CC(COc1ccnc2ccsc12)Cc1ccccc1 (single isomer, unassigned) [Example 562]
log10 of Ki: 1.91
//
compound: C[C@@H](COc1ccnc2c1[C@@H](C)CC[C@H]2F)C[C@H]1Cc2ccccc2[C@]12CC[C@@](Nc1cccc(Cl)c1)(C(=O)O)CC2 [Example 687]
log10 of Ki: 0.63
//
compound: C[C@@H](COc1ccnc2c1[C@@H](C)CC[C@@H]2O)C[C@H]1Cc2ccccc2[C@]12CC[C@@](Nc1cccc(Cl)c1)(C(=O)O)CC2 [Example 675]
log10 of Ki: 1.48
//
compound: CC[C@@H](COc1ccnc2ccsc12)C[C@@H]1Cc2ccccc2[C@]12CC[C@@](Nc1cccc(Cl)c1)(C(=O)O)CC2 [Example 539]
log10 of Ki: 1.40
//
compound: C[C@@H](COc1ccnc2c1[C@H](C)CCC2)C[C@H]1Cc2cc3c(cc2[C@]12CC[C@@](Nc1cccc(Cl)c1)(C(=O)O)CC2)OCC1(CCC1)CO3 [Example 995]
log10 of Ki: -1.05

Okay, here is my list. What is log10 of Ki for each of these?
1. C[C@@H](COc1ccnc2c1[C@H](C)CCC2)CC1=Cc2c(Cl)c(F)ccc2[C@]12CC[C@@](Nc1cccc(Cl)c1)(C(=O)O)CC2 [Example 745]
2. CC[C@H]1CC[C@H](O)c2nccc(OC[C@H](C)C[C@H]3Cc4ccccc4[C@]34CC[C@@](Nc3cccc(Cl)c3)(C(=O)O)CC4)c21 [Example 678]
3. C[C@@H](COc1ccnc2c1[C@@H](C)CCC2)C[C@H]1Cc2ccccc2[C@]12CC[C@@](Nc1cccc(Cl)c1)(C(=O)O)CC2 [Example 654]
4. Cc1cc(OCCC[C@@H]2Cc3ccccc3[C@]23CC[C@@](Nc2cccc(Cl)c2)(C(=O)O)CC3)c2cc[nH]c2c1 [Example 487]
5. C[C@@H](COc1ccnc2ccsc12)C[C@@H]1Cc2cc(F)ccc2[C@]12CC[C@@](Nc1cccc(Cl)c1)(C(=O)O)CC2 [Example 738]
6. Cc1cc(C(C)O)cc2c1C=C(C[C@@H](C)COc1ccnc3c1[C@H](C)CCC3)[C@]21CC[C@](Nc2cccc(Cl)c2)(C(=O)O)CC1 (single isomer, unassigned) [Example 760]
7. O=C(O)[C@]1(Nc2cccc(Cl)c2)CC[C@@]2(CC1)c1ccccc1C[C@@H]2C[C@H](COc1ccnc2ccsc12)c1ccccc1 [Example 547]

Reply:
1. 0.20
2. 2.34
3. 0.72
4. 1.86
5. 0.87
6. -0.70
7. 0.84

* * *

Biological target: Mcl-1 protein (UniProtKB Q07820) (Homo sapiens (Human), UniProt Q07820)
Sequence (Q07820 whole entry): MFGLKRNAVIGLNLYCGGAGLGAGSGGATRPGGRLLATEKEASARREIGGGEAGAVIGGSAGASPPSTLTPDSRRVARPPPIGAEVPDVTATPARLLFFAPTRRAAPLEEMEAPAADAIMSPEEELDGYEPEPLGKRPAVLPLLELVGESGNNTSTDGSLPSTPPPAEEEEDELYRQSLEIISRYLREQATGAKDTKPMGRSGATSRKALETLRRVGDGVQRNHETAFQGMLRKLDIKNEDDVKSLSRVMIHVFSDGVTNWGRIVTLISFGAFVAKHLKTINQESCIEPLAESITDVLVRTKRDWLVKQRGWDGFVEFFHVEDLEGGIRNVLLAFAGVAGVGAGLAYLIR
Experiment: Inhibition of Mcl-1 by the fluorescence polarisation assay (Example A, Method A)
Conditions: fluorescence polarization assay
pKi: −log10 of the molar value.
Parameter threshold = 6. Response is YES when pKi meets or exceeds it, else NO.

Worked examples, 5 molecules total:
molecule: O=C(O)[C@]1(Nc2cccc(Cl)c2)CC[C@@]2(CC1)c1ccccc1CC2CCCOC1CCOc2ccccc21 (stereo partly shown)
label: YES
//
molecule: CCOCCCC1Cc2ccccc2[C@]12CC[C@@](Nc1cccc(Cl)c1)(C(=O)O)CC2 (stereo partly shown)
label: YES
//
molecule: O=C(O)[C@]1(Nc2cccc(Cl)c2)CC[C@@]2(CC1)c1ccccc1C[C@H]2c1ccc2occc2c1
label: YES
//
molecule: O=C(O)[C@]1(Nc2cccc(Cl)c2)CC[C@@]2(CC1)c1ccccc1C[C@@H]2C[C@@H](COc1ccnc2ccsc12)c1ccccc1
label: NO
//
molecule: O=C(O)[C@]1(Nc2cccc(Cl)c2)CC[C@]2(CC1)C(c1ccc(Oc3ccccc3)cc1)=Cc1ccccc12
label: YES

Task item: pKi >= 6 for O=C(O)[C@]1(Nc2cccc(Cl)c2)CC[C@@]2(CC1)c1ccccc1C[C@H]2C[C@H](COc1ccncc1)c1ccccc1 ?
Reply: YES

Task item: Check O=C(O)[C@]1(Nc2cccc(Cl)c2)CC[C@]2(CC1)C(c1ccc(OCc3ccncc3)cc1)=Cc1ccccc12 too.
Reply: NO

Task item: Please do the same for CCc1ccc2c(c1)[C@]1(CC[C@](Nc3cccc(Br)c3)(C(=O)O)CC1)C(=O)N2C as well.
Reply: NO

* * *

Biological target: Mcl-1 protein (UniProtKB Q07820) (Homo sapiens (Human), UniProt Q07820)
Test: Inhibition of Mcl-1 by the fluorescence polarisation assay (Example A, Method A)
Details: fluorescence polarization assay
property_label: log10 Ki (log10 of the value in nM)
Heads up: the numbers are on a log10 scale; they represent Ki in nM.

Worked examples follow.
molecule: CC1=Cc2ccccc2[C@]12CC[C@@](Nc1cccc(Br)c1)(C(=O)O)CC2
log10 Ki: 2.42
--
molecule: Cc1cncnc1OCCCC1=Cc2ccccc2[C@]12CC[C@@](Nc1cccc(Br)c1)(C(=O)O)CC2
log10 Ki: 2.02
--
molecule: CN(Cc1ccccc1)C(=O)C1=Cc2ccccc2[C@]12CC[C@@](Nc1cccc(Cl)c1)(C(=O)O)CC2
log10 Ki: 4.06
--
molecule: COc1ccc2c(c1)[C@]1(CC[C@](Nc3cccc(Br)c3)(C(=O)O)CC1)C(Cc1ccccc1)C2 (some centres unmarked)
log10 Ki: 3.96
--
molecule: O=C(O)[C@]1(Nc2cccc(Cl)c2)CC[C@@]2(CC1)c1ccccc1CC2c1cccc2c1OCC2 (single isomer, unassigned) [Example 295]
log10 Ki: 2.81

Take each entry in turn and give its log10 Ki.
1. O=C(O)[C@]1(Nc2cccc(Cl)c2)CC[C@]2(CC1)C(c1cccc(C(F)(F)F)c1)=Cc1ccccc12
2. COc1cccc([C@H]2Cc3ccccc3[C@]23CC[C@@](Nc2cccc(Br)c2)(C(=O)O)CC3)c1
3. O=C(O)[C@]1(Nc2cccc(Cl)c2)CC[C@@]2(CC1)c1ccccc1CC2C1CCCC1 (single isomer, unassigned) [Example 92]
4. O=C(O)[C@]1(Nc2cccc(Br)c2)CC[C@@]2(CC1)C(C#CCOc1ccccc1)=Cc1ccccc12
5. CN(CCc1ccccc1)C(=O)C1Cc2ccccc2[C@]12CC[C@@](Nc1cccc(Cl)c1)(C(=O)O)CC2 (single isomer, unassigned) [Example 408]

Reply:
1. 2.92
2. 3.86
3. 3.87
4. 4.96
5. 3.63

Below is a list of molecules. For each, state its recorded log10 Ki.
1. Cc1cnccc1OCCC1=Cc2ccccc2[C@]12CC[C@@](Nc1cccc(Cl)c1)(C(=O)O)CC2
2. O=C(O)[C@]1(Nc2cccc(Cl)c2)CC[C@]2(CC1)C(C#CCCOc1ccnc3ccsc13)=Cc1ccccc12
3. O=C(O)[C@]1(Nc2cccc(Cl)c2)CC[C@@]2(CC1)c1ccccc1CC2c1cccc(OCC2CC2)c1 (single isomer, unassigned) [Example 354]
4. O=C(O)[C@]1(Nc2cccc(Cl)c2)CC[C@@]2(CC1)c1ccccc1[C@@H]1C[C@@H]12 (single isomer, unassigned) [Example 107]

Reply:
2.08
2.42
2.60
3.27

* * *

Record form. Attribute: Ki. Fill in for each entry.
Molecular target: Mcl-1 protein (UniProtKB Q07820) (Homo sapiens (Human), UniProt Q07820)
Assay: Inhibition of Mcl-1 by the fluorescence polarisation assay (Example A, Method A)
Details: fluorescence polarization assay
Give bare numbers, in µM.

compound: Cc1cc(C2=Cc3ccccc3[C@]23CC[C@@](Nc2cccc(Cl)c2)(C(=O)O)CC3)cs1
recorded_result: 1.91

compound: CC[C@H](COc1ccccc1)C[C@H]1Cc2ccccc2[C@]12CC[C@@](Nc1cccc(Cl)c1)(C(=O)O)CC2
recorded_result: 1.17

compound: O=C(O)[C@]1(Nc2cccc(Cl)c2)CC[C@@]2(CC1)c1ccccc1C[C@@H]2c1cccc(Cc2ccccc2)c1
recorded_result: 19.3

For every listed record, write down its Ki.
1. CN1c2ccc(/C=C/c3ccccc3)cc2[C@]2(CC[C@](Nc3cccc(Br)c3)(C(=O)O)CC2)C1=O
2. C[C@@H]1Cc2ccccc2[C@]12CC[C@@](Nc1cccc(Br)c1)(C(=O)O)CC2
3. O=C(O)[C@]1(Nc2cccc(Cl)c2)CC[C@@]2(CC1)c1ccccc1C[C@@H]2c1cc2ccccc2o1
4. O=C(O)[C@]1(Nc2cccc(Cl)c2)CC[C@]2(CC1)C(CC(COc1ccnc3ccsc13)COc1ccnc3ccsc13)=Cc1ccccc12

Reply:
1: 4.82; 2: 0.182; 3: 5.69; 4: 0.0937

Could you tell me Ki for each of these compounds? They are listed below.
1. COc1ccc2c(c1)[C@]1(CC[C@@](Nc3cccc(Br)c3)(C(=O)O)CC1)C(Cc1ccccc1)C2 (stereo partly drawn)
2. O=C(O)[C@]1(Nc2cccc(Cl)c2)CC[C@@]2(CCc3ccccc32)CC1
3. O=C(O)[C@]1(Nc2cccc(Cl)c2)CC[C@@]2(CC1)c1ccccc1CC2CCCSc1ccncc1 (stereo partly drawn)
4. Nc1cc(Cl)c(OCCCC2Cc3ccccc3[C@]23CC[C@@](Nc2cccc(Cl)c2)(C(=O)O)CC3)c(Cl)c1 (stereo partly drawn)

Reply:
1: 2.82; 2: 0.706; 3: 0.299; 4: 0.165

For each of the compounds below, note its Ki.
1. O=C(O)[C@]1(Nc2cccc(Br)c2)CC[C@@]2(CC1)C(=O)Nc1ccccc12
2. C/C=C/c1ccc2c(c1)[C@]1(CC[C@](Nc3cccc(Br)c3)(C(=O)O)CC1)C(=O)N2C
3. COc1cc(Cl)cc(C2=Cc3ccccc3[C@]23CC[C@@](Nc2cccc(Cl)c2)(C(=O)O)CC3)c1
4. O=C(O)[C@]1(Nc2cccc(Cl)c2)CC[C@]2(CC1)C(C1CN(CC(F)(F)F)C1)=Cc1ccccc12

Reply:
1. 23.3
2. 12.4
3. 2.18
4. 10.7
